Molecular target: T1, hBCMA (human BCMA) (Homo sapiens, UniProt Q02223)
T1 sequence (Q02223 1-184): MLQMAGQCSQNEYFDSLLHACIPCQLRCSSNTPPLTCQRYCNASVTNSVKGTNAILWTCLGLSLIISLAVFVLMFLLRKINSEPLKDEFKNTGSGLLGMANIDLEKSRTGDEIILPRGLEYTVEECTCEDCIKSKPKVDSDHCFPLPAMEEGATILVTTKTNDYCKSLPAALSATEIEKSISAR
Experiment: Kinetics and affinity of hBCMA/human IgG interactions by SPR (Bio-Rad Proteon XPR36)
Type: binding
Settings: human BCMA, 37° C.
parameter: ka Human (M⁻¹ s⁻¹)
Give the number; M⁻¹ s⁻¹ is assumed, so skip it.

The cases that follow already have their ka Human on record.
>  <molecule>
C01_Rd4_0.6 nM_C16: anti-BCMA antibody (antibody, V domains shown) VH: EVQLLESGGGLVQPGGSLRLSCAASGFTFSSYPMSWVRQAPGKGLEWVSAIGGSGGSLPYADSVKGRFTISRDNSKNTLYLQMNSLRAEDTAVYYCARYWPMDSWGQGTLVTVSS VL: EIVLTQSPGTLSLSPGERATLSCRASQSVSSTYLAWYQQKPGQAPRLLIYDASSRAPGIPDRFSGSGSGTDFTLTISRLEPEDFAVYYCQQYSSWPLTFGQGTKVEIK

>  <ka Human [M⁻¹ s⁻¹]>
1.55e+07

$$$$
>  <molecule>
COMBO_Rd4_0.6 nM_C30: anti-BCMA antibody (antibody, V domains shown) VH: EVQLLESGGGLVQPGGSLRLSCAASGFTFSSYPMSWVRQAPGKGLEWVSAIGGSGGSTYYADSVKGRFTISRDNSKNTLYLQMNSLRAEDTAVYYCARYWPMDSWGQGTLVTVSS VL: EIVLTQSPGTLSLSPGERATLSCRASQSVSYMYLAWYQQKPGQAPRLLIYDASIRATGIPDRFSGSGSGTDFTLTISRLEPEDFAVYYCQQYKSWPLTFGQGTKVEIK

>  <ka Human [M⁻¹ s⁻¹]>
4.35e+06

$$$$
>  <molecule>
COMBO_Rd4_6 nM_C21: anti-BCMA antibody (antibody, V domains shown) VH: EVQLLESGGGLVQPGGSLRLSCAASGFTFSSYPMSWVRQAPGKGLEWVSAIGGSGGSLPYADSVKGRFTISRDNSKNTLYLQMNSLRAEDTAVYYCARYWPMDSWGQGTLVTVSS VL: EIVLTQSPGTLSLSPGERATLSCRASQSVSAAYLAWYQQKPGQAPRLLMYDASIRATGIPDRFSGSGSGTDFTLTISRLEPEDFAVYYCQQYMCWPLTFGQGTKVEIK

>  <ka Human [M⁻¹ s⁻¹]>
1.17e+07

$$$$
>  <molecule>
A02_Rd4_6 nM_C25: anti-BCMA antibody (antibody, V domains shown) VH: EVQLLESGGGLVQPGGSLRLSCAASGFTFSSYAMNWVRQAPGKGLEWVSAISDSGGSRWYADSVKGRFTISRDNSKNTLYLQMNSLRAEDTAVYYCARYWPMTPWGQGTLVTVSS VL: EIVLTQSPGTLSLSPGERATLSCRASQSVSSSYLAWYQQKPGQAPRLLMYDASIRATGIPDRFSGSGSGTDFTLTISRLEPEDFAVYYCQQYLDWPLTFGQGTKVEIK

>  <ka Human [M⁻¹ s⁻¹]>
2.75e+06

$$$$

Exercise: Can you share its ka Human? I mean this molecule: COMBO_Rd4_6 nM_C11: anti-BCMA antibody (antibody, V domains shown) VH: EVQLLESGGGLVQPGGSLRLSCAASGFTFSSYPMSWVRQAPGKGLEWVSAIGGSGGSLGYADSVKGRFTISRDNSKNTLYLQMNSLRAEDTAVYYCARYWPMDSWGQGTLVTVSS VL: EIVLTQSPGTLSLSPGERATLSCRASQSVSPLYLAWYQQKPGQAPRLLMYDASIRATGIPDRFSGSGSGTDFTLTISRLEPEDFAVYYCQQYKAWPLTFGQGTKVEIK
Solution: 6.74e+06
